So I've got a bunch of compounds here, and I need their inhibition values.
target: Rho-associated protein kinase 2 (Homo sapiens) (UniProt O75116); details: at 0.1 µM;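 further: values are averaged inhibition readings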
Sequence (O75116 whole entry, looked up): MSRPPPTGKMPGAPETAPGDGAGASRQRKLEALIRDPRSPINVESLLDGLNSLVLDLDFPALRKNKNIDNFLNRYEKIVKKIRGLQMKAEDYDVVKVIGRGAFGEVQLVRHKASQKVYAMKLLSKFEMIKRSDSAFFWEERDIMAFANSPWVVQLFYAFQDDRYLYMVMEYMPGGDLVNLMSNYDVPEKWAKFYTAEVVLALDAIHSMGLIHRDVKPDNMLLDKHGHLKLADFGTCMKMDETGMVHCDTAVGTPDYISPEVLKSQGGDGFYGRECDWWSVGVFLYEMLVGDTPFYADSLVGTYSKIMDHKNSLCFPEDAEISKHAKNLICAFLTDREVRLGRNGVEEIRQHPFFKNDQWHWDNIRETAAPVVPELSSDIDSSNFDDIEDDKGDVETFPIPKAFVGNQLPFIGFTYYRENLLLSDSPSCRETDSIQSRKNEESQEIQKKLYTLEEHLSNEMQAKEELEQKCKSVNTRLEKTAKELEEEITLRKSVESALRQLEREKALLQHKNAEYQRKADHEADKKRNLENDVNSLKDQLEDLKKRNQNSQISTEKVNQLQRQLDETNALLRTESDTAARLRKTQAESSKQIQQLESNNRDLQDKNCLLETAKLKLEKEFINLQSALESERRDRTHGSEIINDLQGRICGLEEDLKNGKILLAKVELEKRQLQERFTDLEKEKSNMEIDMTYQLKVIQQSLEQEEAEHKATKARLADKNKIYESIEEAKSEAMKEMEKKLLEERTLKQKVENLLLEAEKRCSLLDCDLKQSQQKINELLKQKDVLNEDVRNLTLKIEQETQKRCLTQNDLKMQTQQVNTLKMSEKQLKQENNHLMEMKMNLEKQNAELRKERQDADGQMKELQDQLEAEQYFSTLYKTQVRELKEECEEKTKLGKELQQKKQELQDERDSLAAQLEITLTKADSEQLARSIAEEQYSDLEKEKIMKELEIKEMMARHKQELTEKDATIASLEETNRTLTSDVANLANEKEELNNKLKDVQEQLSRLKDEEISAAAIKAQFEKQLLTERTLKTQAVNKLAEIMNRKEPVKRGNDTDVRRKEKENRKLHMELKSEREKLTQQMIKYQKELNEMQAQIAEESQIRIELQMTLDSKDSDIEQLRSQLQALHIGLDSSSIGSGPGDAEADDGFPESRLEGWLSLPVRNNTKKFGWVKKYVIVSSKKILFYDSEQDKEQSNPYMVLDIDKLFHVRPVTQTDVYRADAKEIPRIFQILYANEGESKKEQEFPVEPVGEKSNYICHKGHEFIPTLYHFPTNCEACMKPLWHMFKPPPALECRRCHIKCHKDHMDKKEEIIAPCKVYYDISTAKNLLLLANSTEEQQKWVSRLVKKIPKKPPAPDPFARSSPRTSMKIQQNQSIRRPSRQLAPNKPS
One number for each entry, in %.

Some compounds with recorded inhibition:
{"columns": ["query_smiles", "inhibition (%)"],
 "data": [
  ["CCn1c(-c2nonc2N)nc2c(C#CC(C)(C)O)nc(CN3CCCC3)cc21", 0.14],
  ["CCn1c(-c2nonc2N)nc2c(C#CC(C)(C)O)nc(OC[C@@H](N)c3ccccc3)cc21", 7.79],
  ["COc1ccc(-c2ccncc2)cc1C(N)=O", 3.14],
  ["COc1ccc(-c2coc3ncnc(N)c23)cc1", 3.52]
]}

Items follow; give inhibition for each.
1. CS(=O)(=O)Nc1ccc(N/C=C2\C(=O)Nc3ccccc32)cc1
2. Nc1ncnc2occ(-c3ccc(NC(=O)Nc4cc(C(F)(F)F)cc(C(F)(F)F)c4)cc3)c12
3. NS(=O)(=O)c1ccc(N/N=C2\C(=O)Nc3ccc(C(=O)NCCc4c[nH]cn4)cc32)cc1

Result:
1. -0.88
2. 20.3
3. 3

Items follow; give inhibition for each.
1. CCCN1CCC(Oc2cc(Nc3nc(Nc4cccc(F)c4C(N)=O)c4cc[nH]c4n3)c(OC)cc2Cl)CC1
2. O=C(Nc1n[nH]c2nc(-c3ccco3)c(Br)cc12)C1CC1
3. CS(=O)(=O)CCN(CC#N)Cc1ccc(-c2ccc3ncnc(Nc4ccc(OCc5cccc(F)c5)c(Cl)c4)c3c2)o1
4. CCN1CCC(CC(=O)Nc2n[nH]c3nc(-c4cccs4)c(Br)cc23)CC1
5. CCn1c(-c2nonc2N)nc2ccncc21

Result:
1. 1.22
2. 0.99
3. 0.1
4. -0.91
5. 0.14

* * *

biological target: Aurora kinase B (Homo sapiens); settings: at 1 µM;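 further: reported percent inhibition is a mean value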
property_name: inhibition (%)
Numbers only, in %.

{"columns": ["compound", "inhibition, %"],
 "data": [
  ["CC1=C(C(=O)Nc2ccc3[nH]ncc3c2)C(c2ccc(F)cc2)NC(=O)N1 (stereo not given)", 18.5]
]}

Items follow; give inhibition for each.
1. CC1=C(C(=O)Nc2ccc3[nH]ncc3c2)C(c2ccc(Cl)c(Cl)c2)CC(=O)N1 (stereo not given)
2. COc1cc2ncn(-c3cc(OCc4ccccc4C(F)(F)F)c(C(N)=O)s3)c2cc1OC
3. COc1cc2ncn(-c3cc(O[C@@H](C)c4ccccc4Cl)c(C(N)=O)s3)c2cc1OC
4. [O-][S+]1CCN(Cc2ccc(-c3ccc4ncnc(Nc5ccc(OCc6ccccc6)c(F)c5)c4c3)o2)CC1

Result:
1: 19.5; 2: 26.6; 3: 38.8; 4: 4.29

Items follow; give inhibition for each.
1. COc1ccc(-c2nn3ncccc3c2-c2ccnc(Nc3ccc(Cl)c(C(F)(F)F)c3)n2)cc1
2. CNC(=O)c1cncc(/C=C/c2c(Cl)cccc2Cl)c1
3. COc1cc2ncn(-c3cc(O[C@H](C)c4ccccc4Cl)c(C(N)=O)s3)c2cc1OC
4. CC(=O)Nc1cccc(C#Cc2cncnc2Nc2ccc(OCc3cccc(F)c3)c(Cl)c2)n1
5. COc1cc(C)c(NC(=O)CN(C)C)cc1Nc1nc(Nc2cccc(F)c2C(N)=O)c2cc[nH]c2n1
6. Fc1cccc(COc2ccc(Nc3ncnc4cc(-c5ccc[nH]5)sc34)cc2Cl)c1
7. CN(C)c1cc2c(Nc3ccc4nc(Cc5ccccc5)[nH]c4c3)ncnc2cn1

Result:
1. 2.65
2. 2.43
3. 37.9
4. 1.96
5. 6.07
6. 13.2
7. 27.4
